tested on: Escherichia coli TOP10; assay: shrunken log2 fold change of peptide-encoding DNA abundance (4.5 h post-induction vs induction); higher = less antimicrobial activity (less host growth inhibition); conditions: time post-induction: 4.5 h; library: site-saturation at positions 5, 18, 19, 20

Residue Codes: RRIRARPPRLPRPRPRPFNLPRP
Target Or System: Escherichia coli TOP10
shrunken log2 fold change: -0.173

Residue Codes: RRIRSRPPRLPRPRPRPECHPRP
Target Or System: Escherichia coli TOP10
shrunken log2 fold change: 0.411

Residue Codes: RRIRHRPPRLPRPRPRPSHYPRP
Target Or System: Escherichia coli TOP10
shrunken log2 fold change: 0.288

Residue Codes: RRIRPRPPRLPRPRPRPFLDPRP
Target Or System: Escherichia coli TOP10
shrunken log2 fold change: -0.413

Residue Codes: RRIRMRPPRLPRPRPRPVEIPRP
Target Or System: Escherichia coli TOP10
shrunken log2 fold change: 0.00438

Residue Codes: RRIRIRPPRLPRPRPRPVLVPRP
Target Or System: Escherichia coli TOP10
shrunken log2 fold change: 0.0259

Residue Codes: RRIRGRPPRLPRPRPRPASAPRP
Target Or System: Escherichia coli TOP10
shrunken log2 fold change: 0.818

Residue Codes: RRIRTRPPRLPRPRPRPVSSPRP
Target Or System: Escherichia coli TOP10
shrunken log2 fold change: 0.651

Residue Codes: RRIRPRPPRLPRPRPRPNTEPRP
Target Or System: Escherichia coli TOP10
shrunken log2 fold change: -0.124

Residue Codes: RRIRYRPPRLPRPRPRPPLEPRP
Target Or System: Escherichia coli TOP10
shrunken log2 fold change: 0.119

Residue Codes: RRIRGRPPRLPRPRPRPVYMPRP
Target Or System: Escherichia coli TOP10
shrunken log2 fold change: 0.361

Residue Codes: RRIRTRPPRLPRPRPRPKEPPRP
Target Or System: Escherichia coli TOP10
shrunken log2 fold change: -0.00172

Residue Codes: RRIRIRPPRLPRPRPRPMLDPRP
Target Or System: Escherichia coli TOP10
shrunken log2 fold change: 0.0726

Residue Codes: RRIRHRPPRLPRPRPRPTDAPRP
Target Or System: Escherichia coli TOP10
shrunken log2 fold change: 0.0615

Residue Codes: RRIRVRPPRLPRPRPRPRDSPRP
Target Or System: Escherichia coli TOP10
shrunken log2 fold change: -0.188

Residue Codes: RRIRQRPPRLPRPRPRPQRQPRP
Target Or System: Escherichia coli TOP10
shrunken log2 fold change: 0.0235

Residue Codes: RRIRRRPPRLPRPRPRPVKLPRP
Target Or System: Escherichia coli TOP10
shrunken log2 fold change: -0.0474

Residue Codes: RRIRLRPPRLPRPRPRPTDAPRP
Target Or System: Escherichia coli TOP10
shrunken log2 fold change: 0.193

Residue Codes: RRIRSRPPRLPRPRPRPAGLPRP
Target Or System: Escherichia coli TOP10
shrunken log2 fold change: -0.0231

Residue Codes: RRIRMRPPRLPRPRPRPHQLPRP
Target Or System: Escherichia coli TOP10
shrunken log2 fold change: -0.0373

Residue Codes: RRIRVRPPRLPRPRPRPEVFPRP
Target Or System: Escherichia coli TOP10
shrunken log2 fold change: 0.0748

Residue Codes: RRIRMRPPRLPRPRPRPQDWPRP
Target Or System: Escherichia coli TOP10
shrunken log2 fold change: 0.00698

Residue Codes: RRIRFRPPRLPRPRPRPYVLPRP
Target Or System: Escherichia coli TOP10
shrunken log2 fold change: -0.332

Residue Codes: RRIRARPPRLPRPRPRPRLRPRP
Target Or System: Escherichia coli TOP10
shrunken log2 fold change: 0.514

Residue Codes: RRIRVRPPRLPRPRPRPRAQPRP
Target Or System: Escherichia coli TOP10
shrunken log2 fold change: 0.126

Residue Codes: RRIRMRPPRLPRPRPRPPSDPRP
Target Or System: Escherichia coli TOP10;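 note: peptides expressed intracellularly from a pBAD plasmid library in pooled LB shake-flask culture, induced with 0.3% L-arabinose, DNA abundance read by NGS, three biological replicates, DESeq2 with apeglm shrinkage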
shrunken log2 fold change: 1.06
